Source: PubChem BioAssay AID720534

- TEST PROTOCOL: qHTS for Inhibitors of TGF-b: Confirmation of Cherry Picks; also: nearly all actives have a fitted effect of over 65% in size
- CONDITION LABEL: HepG2 CAGA-GFP TGF-b reporter, GFP fluorescence, 18 h, cells stimulated with TGF-beta, 500 pg/mL; series mostly up to 46.1 µM
Out of some 1,600 compounds screened, about 990 (62%) were called active. About 30% were inconclusive and are not listed. Calls follow the shape of the dose curve; as a rule, active = well fitted inhibition curve with a large enough effect; inconclusive = small, poorly fitted or top-dose-only effect; inactive = no such curve, though single readings can be large or run the other way. The set was probably picked from earlier hits. These entries were drawn from the full list.
Write down the outcome that applies. Available outcomes: active, inactive

Solved entries (count: 5):
* Cc1nn(-c2ccccc2)c(C)c1/C=N/NC(=O)CSc1nc2ccccc2c(=O)n1-c1ccccc1 | active
* COC(=O)COc1cccc2c(=O)n(CC(=O)NCc3ccccc3)ccc12 | inactive
* COc1cc(/C=C2\Oc3ccc(C#Cc4ccc(O)cc4)cc3C2=O)cc(OC)c1 | active
* Cc1cccc(CS(=O)(=O)c2ncc(Cl)c(C(=O)Nc3ccc(F)cc3)n2)c1 | active
* Cc1cccc(NC(=O)c2nc(S(=O)(=O)Cc3ccccc3)ncc2Cl)c1 | active

Any idea what this test logged for O=C(Nc1nnc(S(=O)(=O)N2CCCCCC2)s1)c1cccc(Br)c1 ?
active

----------
- TEST PROTOCOL: qHTS for Inhibitors of TGF-b: Confirmation of Cherry Picks; also: nearly all actives have a fitted effect of over 65% in size
- CONDITION LABEL: HepG2 CAGA-GFP TGF-b reporter, GFP fluorescence, 18 h, cells stimulated with TGF-beta, 500 pg/mL; series mostly up to 46.1 µM
- Excerpt: TGF-b is a main component in the TGF-b signaling pathway which plays diverse roles in cellular and development pathways. TGF-b is mediated through transcription factors called "Smads". Although the Smad-dependent pathway is the primary canonical TGF-b signaling mode, TGF-b1 can also activate alternative signaling pathways, including those involving MAPK (ERK, JNK and p38). […] We aim to identify Smad3-small molecule antagonists using a quantitative high throughput screening (qHTS) approach. […]
Out of some 1,600 compounds screened, about 990 (62%) were called active. Roughly 30% stayed inconclusive and do not appear here. Calls follow the shape of the dose curve; as a rule, active = well fitted inhibition curve with a large enough effect; inconclusive = small, poorly fitted or top-dose-only effect; inactive = no such curve, though single readings can be large or run the other way. So high a share suggests a set chosen from earlier hits. A selection follows.
Write down the outcome that applies. Available outcomes: active, inactive

Solved entries (count: 5):
• CCOC(=O)C1=C(N)N(c2ccc(C)cc2)C2=C(C(=O)CCC2)C1c1cccs1 (stereo unspecified) = active
• OCCCNc1nccc(-c2cc(Nc3cccc(Cl)c3)ncn2)n1 = active
• O=[N+]([O-])c1ccccc1S(=O)(=O)Nc1cccc2cccnc12 = active
• COc1ccc(CC(=O)Nc2ccccc2NC(=O)c2ccco2)cc1OC = inactive
• CCN(CC)C(=O)C1=C(C)N(Cc2ccc(C(C)(C)C)cc2)C(=O)C(CC(=O)NCc2cccc3ccccc23)C1 (stereo unspecified) = active

Any idea what this test logged for CCCOc1ccc(F)cc1-c1cc(C(=O)Nc2ccc(F)c(Cl)c2)[nH]n1 ?
active

Any idea what this test logged for Cc1cccc(NS(=O)(=O)c2ccc(-c3cnc(C4CC4)o3)cc2)c1 ?
active

Any idea what this test logged for COc1cc(NC(=O)c2ccccc2NS(=O)(=O)c2ccc(Cl)s2)cc(OC)c1 ?
active

Any idea what this test logged for COc1ccc(-c2onc(C)c2-c2ccc3c(c2)OCCO3)c(O)c1 ?
active

Any idea what this test logged for COc1ccc2nc(N3CCN(C(=O)c4ccc([N+](=O)[O-])o4)CC3)sc2c1 ?
active

Any idea what this test logged for Cc1oc2c(F)c(F)c(F)c(F)c2c1S(=O)(=O)Nc1cccc(C(F)(F)F)c1 ?
active

----------
- TEST PROTOCOL: qHTS for Inhibitors of TGF-b: Confirmation of Cherry Picks; also: nearly all actives have a fitted effect of over 65% in size; also: potency is read from the fitted curve at half-maximal effect
- CONDITION LABEL: HepG2 CAGA-GFP TGF-b reporter, GFP fluorescence, 18 h, cells stimulated with TGF-beta, 500 pg/mL; series mostly up to 46.1 µM
Among all 1,600 compounds or so, about 990 (62%) were called active. Not shown: some 30% with an inconclusive outcome. The set was probably picked from earlier hits. Not all results are given here.
Measured Potency values are reported for all entries that follow.

Illustrative cases are given below, each with its answer.
• CCOc1ccc(CCN2C(=S)N([C@@H](CC(C)C)CN3CCC[C@@H]3CN3C(=S)NC[C@@H]3Cc3ccc(O)cc3)C[C@@H]2CC(C)C)cc1 = 18.4 µM (active)
• COc1cccc2sc(N(CCCN(C)C)C(=O)CCS(=O)(=O)c3ccccc3)nc12 = 3.26 µM (active)

API: the following record is the query input.
Look up Potency: Oc1c(CN2CCN(c3ccc(F)cc3)CC2)cc(Cl)c2cccnc12
6.51 µM (active)

----------
- TEST PROTOCOL: qHTS for Inhibitors of TGF-b: Confirmation of Cherry Picks; also: nearly all actives have a fitted effect of over 65% in size; also: potency is read from the fitted curve at half-maximal effect
- CONDITION LABEL: HepG2 CAGA-GFP TGF-b reporter, GFP fluorescence, 18 h, cells stimulated with TGF-beta, 500 pg/mL; series mostly up to 46.1 µM
About 990 (62%) of roughly 1,600 compounds were called active. About 30% were inconclusive and are not listed. The set was probably picked from earlier hits. The list is a sample of the results.
ENDPOINT LABEL: Potency

Illustrative cases are given below, each with its answer.
• Clc1ccc(Nc2nc(-c3cccs3)cs2)nc1 = 13 µM (active)
• CCC(C)N1C(=O)S/C(=C/c2ccc(Sc3nc4ccccc4[nH]3)o2)C1=O (stereo not given) = 5.17 µM (active)
• COc1ccc(CNC(=O)C[C@H]2C[C@H](C(=O)N3CCOCC3)[C@@]3(CCC4CCCC4)c4[nH]c5ccc(Cl)cc5c4CCN3C2=O)cc1OC = 4.61 µM (active)
• Cc1ccc(CN2CC(N3CCC(Cc4ccccc4)CC3)CS2(=O)=O)cc1 (stereo not given) = 20.6 µM (active)
• Clc1ccc2c(c1)C1=C(C(c3ccncc3)O2)C(c2ccc(Br)cc2)n2ncnc2N1 (stereo not given) = 2.31 µM (active)

Look up Potency: OCC1OC(n2cnc3c(N4CCCC4)ncnc32)C(O)C1O (stereo not given)
2.59 µM (active)

Look up Potency: CN(C)CCNC(=O)c1ccc(Cl)c2cc3ccccc3nc12
3.26 µM (active)

Look up Potency: Cc1ccnc(NC(=O)C2CCN(S(=O)(=O)c3c(C)c(C)cc(C)c3C)CC2)c1
7.31 µM (active)

Look up Potency: CC(=O)c1cccc(-c2cnc3c(NC=O)cc(-c4ccc(N(C)C)cc4)cn23)c1
7.31 µM (active)

Look up Potency: CC(=O)c1ccc(-c2cnc3c(NC=O)cc(-c4cccc(NS(C)(=O)=O)c4)cn23)cc1
0.731 µM (active)
